Some substances, each annotated with its measured C2GnT1 activity (%).
biological target: human recombinant core 2 β1,6-GlcNAc-transferase (C2GnT1) (Homo sapiens, UniProt Q02742); experiment: C2GnT1 glycosyltransferase assay; type: biochemical; settings: acceptor substrate 0.5 mM; 0.5 mM Galβ1–3GalNAcα-pnp set to 100%
Sequence (Q02742 33-428 limits assumed): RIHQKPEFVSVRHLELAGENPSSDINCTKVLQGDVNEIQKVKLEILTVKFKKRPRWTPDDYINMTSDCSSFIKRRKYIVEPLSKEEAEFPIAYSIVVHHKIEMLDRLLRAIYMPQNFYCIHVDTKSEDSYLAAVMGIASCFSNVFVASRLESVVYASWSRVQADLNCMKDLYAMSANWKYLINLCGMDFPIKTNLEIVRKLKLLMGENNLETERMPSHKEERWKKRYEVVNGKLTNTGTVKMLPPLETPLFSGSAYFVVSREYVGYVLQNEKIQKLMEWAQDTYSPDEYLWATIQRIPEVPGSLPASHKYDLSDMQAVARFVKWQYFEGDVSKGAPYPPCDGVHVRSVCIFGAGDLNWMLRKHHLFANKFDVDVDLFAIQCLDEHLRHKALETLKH
Provide the reading as a plain figure in %.

So, `Ac-G-(Galβ1–3GalNAcα)TTTPIST-NH2` ? Its C2GnT1 activity (%) was 12

So, `AHGVT-(Galβ1–3GalNAcα)SAPDTRPAPGSTAPNA` ? Its C2GnT1 activity (%) was 9

So, `Ac-GT-(Galβ1–3GalNAcα)TTPIST-NH2` ? Its C2GnT1 activity (%) was 13

So, `AHGVT-(Galβ1–3GalNAcα)SAPDTRPAPGSTAPTA` ? Its C2GnT1 activity (%) was 9

So, `AHGVT-(Galβ1–3GalNAcα)SAPESRPAPGSTAPNA` ? Its C2GnT1 activity (%) was 9

So, `Ac-PT-(Galβ1–3GalNAcα)TTGIST-NH2` ? Its C2GnT1 activity (%) was 49

So, `Ac-P-(Galβ1–3GalNAcα)TTTGIST-NH2` ? Its C2GnT1 activity (%) was 7

So, `Ac-PT-(Galβ1–3GalNAcβ)TTPIST-NH2` ? Its C2GnT1 activity (%) was 43

So, `AHGVT-(Galβ1–3GalNAcα)SAPETRPAPGSTAPTA` ? Its C2GnT1 activity (%) was 11

So, `TET-(Galβ1–3GalNAcα)TSHSTPG` ? Its C2GnT1 activity (%) was 27

So, AHGVT-(Galβ1–3GalNAcα)SAPDTRPAPGS- (Galβ1–3GalNAcα)SAPPA ? Its C2GnT1 activity (%) was 9

So, `TT-(Galβ1–3GalNAcα)TVTPTPTG` ? Its C2GnT1 activity (%) was 13

So, `T-(Galβ1–3GalNAcα)TTVTPTPTG` ? Its C2GnT1 activity (%) was 11

###

Biological target: human recombinant core 2/4 β1,6-GlcNAc-transferase (C2GnT2) (Homo sapiens, UniProt O95395)
Sequence (O95395 27-438): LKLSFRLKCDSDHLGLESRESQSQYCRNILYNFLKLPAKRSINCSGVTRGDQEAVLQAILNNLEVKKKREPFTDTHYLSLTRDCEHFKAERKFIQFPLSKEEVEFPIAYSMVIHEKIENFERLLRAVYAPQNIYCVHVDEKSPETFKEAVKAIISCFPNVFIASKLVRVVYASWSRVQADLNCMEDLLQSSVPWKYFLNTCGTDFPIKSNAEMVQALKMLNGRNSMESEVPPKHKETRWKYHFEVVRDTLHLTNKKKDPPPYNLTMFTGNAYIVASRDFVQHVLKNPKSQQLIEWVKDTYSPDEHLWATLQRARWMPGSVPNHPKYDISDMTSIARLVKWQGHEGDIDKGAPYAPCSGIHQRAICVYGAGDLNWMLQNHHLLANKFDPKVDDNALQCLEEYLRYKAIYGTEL
Assay type: biochemical
Details: acceptor substrate 0.5 mM; 0.5 mM Galβ1–3GalNAcα-pnp set to 100%
Some substances, each annotated with its measured C2GnT2 activity (%).

Check out these entries, answers already filled in.
Substance	Assayed target	C2GnT2 activity (%)
TETTSHS-(GlcNAcβ1–3GalNAcα)TPG	human recombinant core 2/4 β1,6-GlcNAc-transferase (C2GnT2) (Homo sapiens, UniProt O95395)	<1%
TE-(GlcNAcβ1–3GalNAcα)TTSHSTPG	human recombinant core 2/4 β1,6-GlcNAc-transferase (C2GnT2) (Homo sapiens, UniProt O95395)	<1%
TE-(GlcNAcβ1–6GalNAcα)TTSHSTPG	human recombinant core 2/4 β1,6-GlcNAc-transferase (C2GnT2) (Homo sapiens, UniProt O95395)	<1%
Ac-PT-(Galβ1–3GalNAcβ)TTPIST-NH2	human recombinant core 2/4 β1,6-GlcNAc-transferase (C2GnT2) (Homo sapiens, UniProt O95395)	15%

So, `AHGVT-(Galβ1–3GalNAcα)SAPESRPAPGSTAPNA` ? Its C2GnT2 activity (%) was <1%

So, `Ac-P-(Galβ1–3GalNAcβ)TTTPIST-NH2` ? Its C2GnT2 activity (%) was 32%

So, `AHGVT-(Galβ1–3GalNAcα)SAPETRPAPGSTAPTA` ? Its C2GnT2 activity (%) was <1%

So, `TETTSHS-(Galβ1–3GalNAcα)TPG` ? Its C2GnT2 activity (%) was 7%

So, `T-(Galβ1–3GalNAcα)TTVTPTPTG` ? Its C2GnT2 activity (%) was <1%

So, `T-(GlcNAcβ1–3GalNAcα)TTVTPTPTG` ? Its C2GnT2 activity (%) was <1%

So, `AHGVT-(Galβ1–3GalNAcα)SAPDTRPAPGSTAPTA` ? Its C2GnT2 activity (%) was <1%

So, AHGVT-(Galβ1–3GalNAcα)SAPDTRPAPGS- (Galβ1–3GalNAcα)SAPPA ? Its C2GnT2 activity (%) was <1%
